Consider the following compounds; for each one, report its A4922 Height, cm, Light soil.
- Test system: wild-type soybean line A4922
- test-summary: Field trial of seed coating application rates, wild-type soybean
- condition-label: 0.1 μg compound per seed
The figure you give is taken to be in f-i cm; do not add the unit.

Input: Provide A4922 Height, cm, Light soil, system wild-type soybean line A4922, entry C=C1C[C@]23C[C@H]1CC[C@H]2[C@@]12CCC[C@@](C)(C(=O)O1)[C@H]2[C@@H]3C(=O)O [GA9]
Output: 5.7

Input: Provide A4922 Height, cm, Light soil, system wild-type soybean line A4922, entry C=C1C[C@]23C[C@H]1CC[C@H]2[C@]1(C)CCC[C@@](C)(C(=O)O)[C@H]1[C@@H]3C(=O)O [GA12]
Output: 5.7

----------
Consider the following compounds; for each one, report its A4922 Height, cm, Heavy soil.
- Tested on: wild-type soybean line A4922
- test-summary: Field trial of seed coating application rates, wild-type soybean
- condition-label: 10 μg compound per seed

Input: Find the measured A4922 Height, cm, Heavy soil of `C=C1C[C@]23C[C@@]1(O)CC[C@H]2[C@@]12C=C[C@H](O)[C@@](C)(C(=O)O1)[C@H]2[C@@H]3C(=O)O` and report it.
Output: 10.3 cm·days

Input: Find the measured A4922 Height, cm, Heavy soil of `C=C1C[C@]23C[C@H]1CC[C@H]2[C@@]12CCC[C@@](C)(C(=O)O1)[C@H]2[C@@H]3C(=O)O` and report it.
Output: 6.7 efg cm

Input: Find the measured A4922 Height, cm, Heavy soil of `C=C1C[C@]23C[C@@]1(O)CC[C@H]2[C@@]12CC=C[C@@](C)(C(=O)O1)[C@H]2[C@@H]3C(=O)O` and report it.
Output: 17.3 b cm

Input: Find the measured A4922 Height, cm, Heavy soil of `C=C1C[C@]23C[C@H]1CC[C@H]2[C@]1(C)CCC[C@@](C)(C(=O)O)[C@H]1[C@@H]3C(=O)O` and report it.
Output: 5.0 fgh cm

----------
- Tested on: wild-type soybean line A4922
- test-summary: Field trial of seed coating application rates, wild-type soybean
- condition-label: 10 μg compound per seed
endpoint: A4922 Height, cm, Light soil

Input: Find the measured A4922 Height, cm, Light soil of `C=C1C[C@]23C[C@@]1(O)CC[C@H]2[C@@]12C=C[C@H](O)[C@@](C)(C(=O)O1)[C@H]2[C@@H]3C(=O)O` and report it.
Output: 12.7 cm·days

Input: Find the measured A4922 Height, cm, Light soil of `C=C1C[C@]23C[C@H]1CC[C@H]2[C@@]12CCC[C@@](C)(C(=O)O1)[C@H]2[C@@H]3C(=O)O` and report it.
Output: 7.3 fg·cm

Input: Find the measured A4922 Height, cm, Light soil of `C=C1C[C@]23C[C@H]1CC[C@H]2[C@]1(C)CCC[C@@](C)(C(=O)O)[C@H]1[C@@H]3C(=O)O` and report it.
Output: 3.7 hij cm

Input: Find the measured A4922 Height, cm, Light soil of `C=C1C[C@]23C[C@@]1(O)CC[C@H]2[C@@]12CC=C[C@@](C)(C(=O)O1)[C@H]2[C@@H]3C(=O)O` and report it.
Output: 16.3 c cm

----------
Consider the following molecules; for each one, report its No. A4922 Emerged, Heavy soil.
- Test system: wild-type soybean line A4922
- test-summary: Field trial of seed coating application rates, wild-type soybean
- condition-label: 10 μg compound per seed

Input: Find the measured No. A4922 Emerged, Heavy soil of C=C1C[C@]23C[C@H]1CC[C@H]2[C@@]12CCC[C@@](C)(C(=O)O1)[C@H]2[C@@H]3C(=O)O [GA9] and report it.
Output: 26.3 g·days

Input: Find the measured No. A4922 Emerged, Heavy soil of C=C1C[C@]23C[C@@]1(O)CC[C@H]2[C@@]12CC=C[C@@](C)(C(=O)O1)[C@H]2[C@@H]3C(=O)O [GA5] and report it.
Output: 32.7 b-g

Input: Find the measured No. A4922 Emerged, Heavy soil of C=C1C[C@]23C[C@H]1CC[C@H]2[C@]1(C)CCC[C@@](C)(C(=O)O)[C@H]1[C@@H]3C(=O)O [GA12] and report it.
Output: 19.0 fg

Input: Find the measured No. A4922 Emerged, Heavy soil of C=C1C[C@]23C[C@@]1(O)CC[C@H]2[C@@]12C=C[C@H](O)[C@@](C)(C(=O)O1)[C@H]2[C@@H]3C(=O)O [GA3, gibberellic acid] and report it.
Output: 28.7 c-g

----------
Consider the following compounds; for each one, report its No. A4922 Emerged, Heavy soil.
- System: wild-type soybean line A4922
- test-summary: Field trial of seed coating application rates, wild-type soybean
- condition-label: 100 μg compound per seed

Input: Find the measured No. A4922 Emerged, Heavy soil of C=C1C[C@]23C[C@@]1(O)CC[C@H]2[C@@]12CC=C[C@@](C)(C(=O)O1)[C@H]2[C@@H]3C(=O)O [GA5] and report it.
Output: 38.3 b-e

Input: Find the measured No. A4922 Emerged, Heavy soil of C=C1C[C@]23C[C@H]1CC[C@H]2[C@@]12CCC[C@@](C)(C(=O)O1)[C@H]2[C@@H]3C(=O)O [GA9] and report it.
Output: 28.3 c-g

Input: Find the measured No. A4922 Emerged, Heavy soil of C=C1C[C@]23C[C@@]1(O)CC[C@H]2[C@@]12C=C[C@H](O)[C@@](C)(C(=O)O1)[C@H]2[C@@H]3C(=O)O [GA3, gibberellic acid] and report it.
Output: 19.7 efg

Input: Find the measured No. A4922 Emerged, Heavy soil of C=C1C[C@]23C[C@H]1CC[C@H]2[C@]1(C)CCC[C@@](C)(C(=O)O)[C@H]1[C@@H]3C(=O)O [GA12] and report it.
Output: 38.7 bcd

----------
- System: constitutively GA-deficient transgenic dwarf soybeans (line 719)
- test-summary: Summary of first two greenhouse experiments, rescue of GA-deficient soybeans
- Type: in vivo, Glycine max
- Design: key: +: transgenic soybeans are rescued; 0: transgenic soybeans are not rescued
- condition-label: 0.25 mg/ml solution (ethanol-water)
endpoint: Rescue of GA-deficient soybeans

| compound | target-or-test-system | result |
| --- | --- | --- |
| C=C1C[C@@]23CC[C@H]4[C@@](C)(CCC[C@@]4(C)C(=O)O)[C@@H]2CC[C@]1(O)C3 (single isomer, unassigned; ent-7) | constitutively GA-deficient transgenic dwarf soybeans (line 719) | 0 |
| C=C1C[C@]23C[C@H]1CC[C@H]2[C@@]12C=C[C@H](O)[C@@](C)(C(=O)O1)[C@H]2[C@@H]3C(=O)OC | constitutively GA-deficient transgenic dwarf soybeans (line 719) | 0 |
| C=C1C[C@]23C[C@H]1CC[C@H]2[C@]1(C)CCC[C@@](C)(C(=O)O)[C@H]1[C@@H]3C=O | constitutively GA-deficient transgenic dwarf soybeans (line 719) | 0 |
| C=C1C[C@]23C[C@@]1(O)CC[C@H]2[C@@]12C=C[C@H](OC(C)=O)[C@@](C)(C(=O)O1)[C@H]2[C@@H]3C(=O)O [GA3-3-acetate] | constitutively GA-deficient transgenic dwarf soybeans (line 719) | + |
| C=C1C[C@]23C[C@H]1CC[C@H]2[C@@]12CC[C@H](O)[C@@](C)(C(=O)O1)[C@H]2[C@@H]3C(=O)O | constitutively GA-deficient transgenic dwarf soybeans (line 719) | + |

Now consider the entry below.
Input: Provide Rescue of GA-deficient soybeans, system constitutively GA-deficient transgenic dwarf soybeans (line 719), entry `C=C1C[C@]23C[C@@]1(O)CC[C@H]2[C@@]12CCC[C@@](C)(C(=O)O1)[C@H]2[C@@H]3C(=O)O`
Output: +

----------
- Test system: wild-type soybean line A4922
- test-summary: Field trial of seed coating application rates, wild-type soybean
- condition-label: 100 μg compound per seed
endpoint: A4922 Height, cm, Heavy soil (a cm)
The figure you give is taken to be in a cm; do not add the unit.

Input: Find the measured A4922 Height, cm, Heavy soil of `C=C1C[C@]23C[C@@]1(O)CC[C@H]2[C@@]12CC=C[C@@](C)(C(=O)O1)[C@H]2[C@@H]3C(=O)O` and report it.
Output: 22.3

Input: Find the measured A4922 Height, cm, Heavy soil of `C=C1C[C@]23C[C@@]1(O)CC[C@H]2[C@@]12C=C[C@H](O)[C@@](C)(C(=O)O1)[C@H]2[C@@H]3C(=O)O` and report it.
Output: 21.0

----------
Consider the following molecules; for each one, report its Observation on Wild-Type Line A3237.
- System: wild-type soybean line A3237
- test-summary: Experiment I greenhouse test, seed imbibition, wild-type soybean
- condition-label: 0.25 mg/ml; seeds imbibed 5 hours
Enter the number alone.

Input: Find the measured Observation on Wild-Type Line A3237 of `C=C1C[C@]23C[C@@]1(O)CC[C@H]2[C@@]12C=C[C@H](O)[C@@](C)(C(=O)O1)[C@H]2[C@@H]3C(=O)O` and report it.
Output: 3

Input: Find the measured Observation on Wild-Type Line A3237 of `C=C1C[C@]23C[C@H]1CC[C@H]2[C@]1(C)CCC[C@@](C)(C(=O)O)[C@H]1[C@@H]3C=O` and report it.
Output: 0

Input: Find the measured Observation on Wild-Type Line A3237 of C=C1C[C@]23C[C@@]1(O)CC[C@H]2[C@@]12C=C[C@H](OC(C)=O)[C@@](C)(C(=O)O1)[C@H]2[C@@H]3C(=O)O [GA3-3-acetate] and report it.
Output: 3

FYI, the data here is from patent US6723897B2.
